measured-target: T1, human GITR on naïve CD4+ T cells (human, UniProt Q9Y5U5 26-241)
T1 sequence: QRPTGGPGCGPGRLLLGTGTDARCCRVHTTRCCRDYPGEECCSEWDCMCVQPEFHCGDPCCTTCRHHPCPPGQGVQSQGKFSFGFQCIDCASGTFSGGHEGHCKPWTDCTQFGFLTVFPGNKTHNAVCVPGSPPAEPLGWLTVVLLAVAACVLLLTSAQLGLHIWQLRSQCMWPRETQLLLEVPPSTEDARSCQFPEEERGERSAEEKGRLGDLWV
assay-notes: cell-based or functional assay
Reported values of proliferation of naïve CD4+ T cells, mean, at 72.3 ng/mL Ab for individual entries
Write the value as a bare number.

Some binders with recorded proliferation of naïve CD4+ T cells, mean, at 72.3 ng/mL Ab:
binder: 49A1 (antibody, V domains shown, Parental rodent anti-human GITR monoclonal antibody from a hybridoma; kappa VL; also called 49A1.B1) VH: EVQLQESGPSLVKPSQTLSLTCSVTGDSITSGYWNWIRKFPGNKFEYMGFISYSGNTYYNPSLRSRISITRDTSKNQYFLHLNSVTTEDTATYYCSRRHLISGYGWFAYWGQGTLVTVSA VL: VIVMTQSHKFMSTSIGDRVNITCKASQDVISAVAWYQQKPGQSPKLLIYWASTRHTGVPDRFTGSGSGTDFTLTINSVQAEDRALYYCQQHSYTPPWTFGGGTNLEIKR
obs-value: 96100
//
binder: 17F10 (antibody, V domains shown, Parental rodent anti-human GITR monoclonal antibody from a hybridoma; kappa VL; also called 17F10.B1) VH: EVKLVESGGGFVKPGGSLKLSCAASGFTVRNYAMSWVRQTPEKRLEWVASISTGDRSYLPDSMKGRFTISRDNARNILYLQMSSLRSEDTAIYYCQRYFDFDSFAFWGQGTLVTVSA VL: DIQMTQTPSSLSASLGDRVTISCRASQDINNFLNWYQQKPDGSLKLLIYYTSKLHSGVPSRFSGSGSGTDFSLTISNLDQEDVATYFCQQGHTLPPTFGGGTKLEVKR
obs-value: 83500

Next, consider the following binder.
Task item: For the binder 9E5 (antibody, V domains shown, Parental rodent anti-human GITR monoclonal antibody from a hybridoma; kappa VL; also called 9E5.C1) VH: QVTLKESGPGILQPSQTLSLTCTFSGFSLSTYGVGVGWIRQPSGKGLEWLANIWWDDDNYYNPSLIHRLTVSKDTSNNQAFLKITNVDTAETATYYCAQIKEPRDWFFEFWGPGTMVSVSS VL: DIQMTQTPSSMPASLGERVTIFCRASQGVNNFLTWYQQKPDGTIKPLIFYTSNLQSGVPSRFSGSGSGTDYSLSISSLEPEDFAMYYCQQYHGFPNTFGAGTKLELKR , report proliferation of naïve CD4+ T cells, mean, at 72.3 ng/mL Ab.
Reply: 85300
